# Test system: VchCAST RNA-guided transposition machinery (E. coli BL21(DE3) host, lacZ target)
# ASSAY TEXT: relative integration efficiency (T-RL orientation) vs wild-type transposon end (log2 (normalized fold change)); transposon end mutated: left end; higher = more efficient transposition
MEASURED PARAMETER: relative integration efficiency (log2)

// map AATGTTGTTGATGCAACCATAAAGTGATATTTAATAATTATTTATAATCAGCAACTTCAACCATATATTGATATCTCACAAAACAACCATAAGTTGATATTTTAACCACAAAATGTGAATCGAGTATTTCAGCAAAACTACTGCAGTAAGAA to recorded relative integration efficiency (log2) (system: VchCAST RNA-guided transposition machinery (E. coli BL21(DE3) host, lacZ target))
-0.834

// map AATGTTGTTGATGCAACCATAAAGTGATATTTAAAATGTGAGCGAGTAACAACCCTTAACCACAAAACAACCATATATTGATATCTCACAAAACAACCATAAGTTGATATTTTTGTGAATCGAGTATTTCAGCAAAACTACTGCAGTAAGAA to recorded relative integration efficiency (log2) (system: VchCAST RNA-guided transposition machinery (E. coli BL21(DE3) host, lacZ target))
-2.19

// map AATGTTGTTGATGCAACCATAAAGTGATATTTAATAATTATTTATAACAACCATATATTGATATCTCACAAAACAACCATAAGTTGATATTTTTGTGAATCGAGTATTTCAGCAAAACTACTGCAGTAAGAAAGTTACTTCGTGGTATGGGA to recorded relative integration efficiency (log2) (system: VchCAST RNA-guided transposition machinery (E. coli BL21(DE3) host, lacZ target))
-6.45

// map AATGTTGTTGATGCAACCATAAAGTGATATTTACACGAAGTGGCAACTGCCGTGCTGGCGTGCGATGCAACCATATATTGATATCTCACAAAACAACCATAAGTTGATATTTTTGTGAATCGAGTATTTCAGCAAAACTACTGCAGTAAGAA to recorded relative integration efficiency (log2) (system: VchCAST RNA-guided transposition machinery (E. coli BL21(DE3) host, lacZ target))
-2.73

---

# Tested on: VchCAST RNA-guided transposition machinery (E. coli BL21(DE3) host, lacZ target)
# ASSAY TEXT: relative integration efficiency (T-LR orientation) vs wild-type transposon end (log2 (normalized fold change)); transposon end mutated: right end (5 bp flank + 75 bp right end); higher = more efficient transposition
Just so you know, the groups by relative integration efficiency (log2) go like this: lower bin = under -0.3, middle bin = from -0.3 up to 0.9, upper bin = 0.9 and over

Sort into band: ACATTTGTTGATCAACCATAAAATGATAATTACACCCATAAATTGATAATTATCACACCCATAAATTGATATTGCCTCTGATCATAGTCAGACCAACATTGCTACGACCCGTATTCGCACCGACACT
lower bin

Sort into band: ACATTTGTTGATACAACCATAAAATCATAATTACACCCATCAATTGATAATTATCACACCCAATTTAACTATAACGCTCTGATCATAGTCAGACCAACATTGCTACGACCCGTATTCGCACCGACAC
middle bin

Sort into band: ACATTAGTGGATACAACCATAAAATGATAATTACACCCATAAATTCATAATTATCACACCCAATTTAACTATAACGCTCTGATCATAGTCAGACCAACATTGCTACGACCCGTATTCGCACCGACAC
lower bin

Sort into band: ACATTTGTTGATACAACCATAAAATGATAATTAATAATTATTTATACACCCATAAATTGATAATTATCAACAAACGCCCGGTCGCGGTACTCTGATCATAGTCAGACCAACATTGCTACGACCCGTA
middle bin

Sort into band: ACATTTGTTGATACAACCATAAAATGTATTTTACACCCATAAATTGATAATTATCACACCCATAAATTGATATTGCCTCTGATCATAGTCAGACCAACATTGCTACGACCCGTATTCGCACCGACAC
lower bin

Sort into band: ACATTTGTTGATACAACCATAAAATGATAATTACACCCATCAATTGATAATTATCACACCCCATTTAACTATAACGCTCTGATCATAGTCAGACCAACATTGCTACGACCCGTATTCGCACCGACAC
upper bin

Sort into band: ACATTTGTTGATACAACCATAAAATGATAATTACACCCATAAATTGATAATTATCACACCCATAAATTGATATTGCCTAGGATCATAGTCAGACCAACATTGCTACGACCCGTATTCGCACCGACAC
middle bin

Sort into band: ACATTTGTTGATACACCCATAAATTGATAATTACAACCATAAAATGATAATTATCAGTGGGTATTTAACTATAACGCTCTGATCATAGTCAGACCAACATTGCTACGACCCGTATTCGCACCGACAC
upper bin

Sort into band: ACATTTGTTGATACAACCATAAAATGATAATTACTCTGATCATAGTCAGACCAACATTGCTACGACCCGTATTCGCACCACCCATAAATTGATAATTATCAGTGGGTATTTAACTATAACGCGACAC
upper bin

---

# Tested on: VchCAST RNA-guided transposition machinery (E. coli BL21(DE3) host, lacZ target)
# ASSAY TEXT: relative integration efficiency (T-RL orientation) vs wild-type transposon end (log2 (normalized fold change)); transposon end mutated: right end (5 bp flank + 75 bp right end); higher = more efficient transposition
Consider the following sequences; for each one, report its relative integration efficiency (log2).
// no unit string in output, number only

// map ACATTTGTTGATACAACCATTTAATGATAATAACACCCATAAAATGATAATTATCACACCCAATTTAACTATAACGCTCTGATCATAGTCAGACCAACATTGCTACGACCCGTATTCGCACCGACAC to recorded relative integration efficiency (log2) (system: VchCAST RNA-guided transposition machinery (E. coli BL21(DE3) host, lacZ target))
-1.14

// map ACATTTGTTGATACAACCCTAAAATGATAATTACACCCCTAAATTGATAATTATCACACCCCTAAATTGATATTGCCTCTGATCATAGTCAGACCAACATTGCTACGACCCGTATTCGCACCGACAC to recorded relative integration efficiency (log2) (system: VchCAST RNA-guided transposition machinery (E. coli BL21(DE3) host, lacZ target))
-4.68

// map ACATTTGTTGATACAACCATAAAATGATAATTAATAATTATTTATAATCAGCAACTTACACCCATAAATTGATAATTATCACACCCATAAATTGATATTGCCTCTGATCATAGTCAGACCAACATTG to recorded relative integration efficiency (log2) (system: VchCAST RNA-guided transposition machinery (E. coli BL21(DE3) host, lacZ target))
-5.34

// map ACATTTGTTGATACAACCATAAAATGATAATTACACCCATAAATGGATTATTATCACACCCAATTTAACTATAACGCTCTGATCATAGTCAGACCAACATTGCTACGACCCGTATTCGCACCGACAC to recorded relative integration efficiency (log2) (system: VchCAST RNA-guided transposition machinery (E. coli BL21(DE3) host, lacZ target))
-1.59

// map ACATTTGTTGATACAACCATAAAATGATAATTACTCTGATCATAGTCAGACCAACATTGCTACCACCCATAAATTGATAATTATCAGTGGGTATTTAACTATAACGGACCCGTATTCGCACCGACAC to recorded relative integration efficiency (log2) (system: VchCAST RNA-guided transposition machinery (E. coli BL21(DE3) host, lacZ target))
-1.54

---

# Tested on: VchCAST RNA-guided transposition machinery (E. coli BL21(DE3) host, lacZ target)
# ASSAY TEXT: relative integration efficiency (T-LR orientation) vs wild-type transposon end (log2 (normalized fold change)); transposon end mutated: right end (5 bp flank + 75 bp right end); higher = more efficient transposition
MEASURED PARAMETER: relative integration efficiency (log2)
// no unit string in output, number only

// map ACATTTGTTGATACAACCATAAAATGATAATTACAACCATAAAATGATAATTATCACACCCATAAATTGATATTGCCTCTGATCATAGTCAGACCAACATTGCTACGACCCGTATTCGCACCGACAC to recorded relative integration efficiency (log2) (system: VchCAST RNA-guided transposition machinery (E. coli BL21(DE3) host, lacZ target))
-0.38

// map ACATTGGTGGATACAACCATAAAATGATAATTACACCCATAAATTCATAATTATCACACCCAATTTAACTATAACGCTCTGATCATAGTCAGACCAACATTGCTACGACCCGTATTCGCACCGACAC to recorded relative integration efficiency (log2) (system: VchCAST RNA-guided transposition machinery (E. coli BL21(DE3) host, lacZ target))
-4.36

// map ACATTTGTTGATACAACCATAAAATGGTAATTCCACCCATACATTGATAATTATCACACCCAATTTAACTATAACGCTCTGATCATAGTCAGACCAACATTGCTACGACCCGTATTCGCACCGACAC to recorded relative integration efficiency (log2) (system: VchCAST RNA-guided transposition machinery (E. coli BL21(DE3) host, lacZ target))
0.391

// map ACATTTGTTGATACAACCATAAAAAGATAATTACACCCATAAATTGATAATAATGACACCGAATTTAACTATAACGCTCTGATCATAGTCAGACCAACATTGCTACGACCCGTATTCGCACCGACAC to recorded relative integration efficiency (log2) (system: VchCAST RNA-guided transposition machinery (E. coli BL21(DE3) host, lacZ target))
2.51

// map ACATTTGTTGATACAACCATAAAGTGATATTTACAACCATAAAATGATAATTATCACACCCATAAATTGATAATTACTCTGATCATAGTCAGACCAACATTGCTACGACCCGTATTCGCACCGACAC to recorded relative integration efficiency (log2) (system: VchCAST RNA-guided transposition machinery (E. coli BL21(DE3) host, lacZ target))
0.307
